Test: activity coefficient (dimensionless); of the first substance listed, at infinite dilution; xn = mol fraction of the nth substance listed
Settings: 323.15 K; 101.33 kPa; Liquid; Chromatography; x1 = 0
observedProperty: activity coefficient

compound: C1CCOC1 [tetrahydrofuran] + CCCCCCCCn1cc[n+](C)c1C.F[B-](F)(F)F
observedProperty: activity coefficient
valueReported: 2.1
--
compound: Cc1cccc(C)c1 [1,3-dimethylbenzene] + CCCCCCCCn1cc[n+](C)c1C.F[B-](F)(F)F
observedProperty: activity coefficient
valueReported: 4.24
--
compound: CCC(C)O (stereo unspecified) [butan-2-ol] + CCCCCCCCn1cc[n+](C)c1C.F[B-](F)(F)F
observedProperty: activity coefficient
valueReported: 2.78
--
compound: CCCCCCC [heptane] + CCCCCCCCn1cc[n+](C)c1C.F[B-](F)(F)F
observedProperty: activity coefficient
valueReported: 25.1

1. ClC(Cl)Cl [trichloromethane] + CCCCCCCCn1cc[n+](C)c1C.F[B-](F)(F)F
2. C1=CCCCC1 [cyclohexene] + CCCCCCCCn1cc[n+](C)c1C.F[B-](F)(F)F
Param metric = activity coefficient; output whichever of 1 , 2 has the minimum value. Write down the label attached to your selection.
1

A. CO [methanol] + CCCCCCCCn1cc[n+](C)c1C.F[B-](F)(F)F
B. CC(C)O [propan-2-ol] + CCCCCCCCn1cc[n+](C)c1C.F[B-](F)(F)F
Param metric = activity coefficient; output whichever of A , B has the minimum value. Write down the label attached to your selection.
A

P. CC1CCCCC1 [methylcyclohexane] + CCCCCCCCn1cc[n+](C)c1C.F[B-](F)(F)F
Q. CC(C)CO [2-methyl-1-propanol] + CCCCCCCCn1cc[n+](C)c1C.F[B-](F)(F)F
Could you point out whether the larger activity coefficient belongs to P or to Q ? Write down the label attached to your selection.
P

a. ClCCl [dichloromethane] + CCCCCCCCn1cc[n+](C)c1C.F[B-](F)(F)F
b. CCOC(C)=O [ethyl acetate] + CCCCCCCCn1cc[n+](C)c1C.F[B-](F)(F)F
c. C1CCCCC1 [cyclohexane] + CCCCCCCCn1cc[n+](C)c1C.F[B-](F)(F)F
d. CCCCCC [hexane] + CCCCCCCCn1cc[n+](C)c1C.F[B-](F)(F)F
Hello, I need these entries ordered by activity coefficient, highest reading first. Thanks! Please, when replying, give the labels in the order that was requested.
d, c, b, a

1. c1ccccc1 [benzene] + CCCCCCCCn1cc[n+](C)c1C.F[B-](F)(F)F
2. CCCCCCCCC [nonane] + CCCCCCCCn1cc[n+](C)c1C.F[B-](F)(F)F
Could you point out whether the larger activity coefficient belongs to 1 or to 2 ? Write down the label attached to your selection.
2
(2: 41.1, 1: 2.07)

1. C1COCCO1 [1,4-dioxane] + CCCCCCCCn1cc[n+](C)c1C.F[B-](F)(F)F
2. CC#N [acetonitrile] + CCCCCCCCn1cc[n+](C)c1C.F[B-](F)(F)F
Could you point out whether the larger activity coefficient belongs to 1 or to 2 ? Write down the label attached to your selection.
1
(1: 1.72, 2: 1.02)

A. CCO [ethanol] + CCCCCCCCn1cc[n+](C)c1C.F[B-](F)(F)F
B. CC(C)CC(C)(C)C [2,2,4-trimethylpentane] + CCCCCCCCn1cc[n+](C)c1C.F[B-](F)(F)F
Param metric = activity coefficient; output whichever of A , B has the minimum value. Write down the label attached to your selection.
A

A. CCCO [propan-1-ol] + CCCCCCCCn1cc[n+](C)c1C.F[B-](F)(F)F
B. CCCCCCCC [octane] + CCCCCCCCn1cc[n+](C)c1C.F[B-](F)(F)F
Param metric = activity coefficient; output whichever of A , B has the minimum value. Write down the label attached to your selection.
A

FYI, the data here is from the NIST ThermoML archive (doi:10.1016/j.jct.2018.09.003).
